Exercise: for every item that follows, state its recorded Potency.
# METHOD: qHTS to identify inhibitors of the type 1 interferon - major histocompatibility complex class I in skeletal muscle: Secondary screen by immunofluorescence; note: potency is the fitted concentration of half-maximal effect; nearly all actives have a fitted effect of over 70% in size
# TEST_PARAMETERS: C25cl48 myoblasts, IFN-b induced HLA-ABC immunofluorescence, 24 h; series mostly up to 49.8 µM
Inconclusive results are not listed. Activity calls are given as the source filed them. Calls come from the whole dose curve; as a rule, active = well fitted inhibition curve with a large enough effect; inconclusive = small, poorly fitted or top-dose-only effect; inactive = no such curve, though single readings can be large or run the other way.

- O=C(CCCCCCC(=O)Nc1ccccc1)NO: 914 nM (active)
- C[C@H](NC(=O)/C(C#N)=C/c1cccc(Br)n1)c1ccccc1: 20500 nM (active)
- COC(=O)C[C@](O)(CCCC(C)(C)O)C(=O)O[C@@H]1C(OC)=C[C@]23CCCN2CCc2cc4c(cc2[C@H]13)OCO4: 28.9 nM (active)
- O=C(/C=C/c1ccc(CN(CCO)CCc2c[nH]c3ccccc23)cc1)NO: 36.4 nM (active)

# context switch: different molecule, same Potency
Bench note: what Potency did `Cc1cc(O)c(-c2ccc([C@@H](C)CN)cc2)c2c1[nH]c(=O)c1sccc12` show? 18.2 nM (active)

Values from PubChem BioAssay AID1347414
